- EXPERIMENT NOTES: Size distribution, polydispersity and Z-potential of LNPs by dynamic light scattering (Malvern Zetasizer)
- Type: physicochemical
- CONDITION CONTEXT: LNPs, standard formulation 50:10:38.5:1.5; DLS
- Description: The LNP solution was then adjusted to a final concentration of mRNA of 100 µg/ml. Size distribution, polydispersity and Z-potential were measured by dynamic light scattering (DLS) using Malvern Zetasizer Advance Lab Blue Label. RNA encapsulation was assessed by Quant-IT® Ribogreen following the manufacturer's instructions.
Think of -10 mV as a floor: if Z Potential (± D.E.) [mV] stands on it or above, it is label 1; beneath it, label 0.

Solved cases below.
>>> class("CCCCCCCCCCCCC(CCCCCCCCCC)COC(=O)CCSCCC(NC(=O)C(CCCCCCCC)CCCCCCCCCC)C(=O)NCC1CCN(C)CC1 (stereo not drawn)")
"label 1"
>>> class("CCCCCCCCC(CCCCCCCC)OC(=O)C(CSCCC(=O)OCCCCCC)CC(=O)NCCCn1ccnc1 (stereo not drawn)")
"label 0"
>>> class("CCCCCCCCCCCCCCOC(=O)CCSCCC(C(=O)NCCCN1CCOCC1)C(=O)OCC(CCCCCC)CCCCCCCC (stereo not drawn)")
"label 0"
>>> class("CCCCCCCCOC(=O)CCSCC(CC(=O)NC1CCN(C)CC1)C(=O)OCC(CCCCCC)CCCCCCCC (stereo not drawn)")
"label 1"
>>> class("CCCCCCCCC(CCCCCCCC)OC(=O)C(CCSCCC(=O)OCC(CC)CCCC)C(=O)NCCCn1ccnc1 (stereo not drawn)")
"label 0"

Ask: Tell me whether Z Potential (± D.E.) [mV] is at least -10 mV here: CCCCCCCC/C=C\CCCCCCCC(=O)NC(CCSCCC(=O)OCC(CCCCCCCCCC)CCCCCCCCCCCC)C(=O)NC1CCN(C)CC1 (stereo not drawn)
Result: label 0

Ask: Tell me whether Z Potential (± D.E.) [mV] is at least -10 mV here: CCCCCCCC/C=C\CCCCCCCC(=O)NC(CCSCCC(=O)OCCCCCCCC(C)C)C(=O)NCCCN(CCO)CCO (stereo not drawn)
Result: label 1

Ask: Tell me whether Z Potential (± D.E.) [mV] is at least -10 mV here: CCCCCCCCCCCCCCCCCCCCCCOC(=O)CCSCCC(C(=O)NCCCn1ccnc1)C(=O)OC(CCCCCCCC)CCCCCCCC (stereo not drawn)
Result: label 0

Ask: Tell me whether Z Potential (± D.E.) [mV] is at least -10 mV here: CCCCCCCCCCCCCCCCOC(=O)CCSCCC(NC(=O)C(CCCCCC)CCCCCCCC)C(=O)NCCCN(C)C (stereo not drawn)
Result: label 1

Ask: Tell me whether Z Potential (± D.E.) [mV] is at least -10 mV here: CCCCCCCCC(CCCCCC)C(=O)NC(CCSCCC(=O)OCCCCCCCC(C)C)C(=O)NCCCN1CCOCC1 (stereo not drawn)
Result: label 0

---

- EXPERIMENT NOTES: Size distribution, polydispersity and Z-potential of LNPs by dynamic light scattering (Malvern Zetasizer)
- Format: physicochemical
- CONDITION CONTEXT: LNPs, standard formulation 50:10:38.5:1.5; DLS
READOUT NAME: Z Potential (± D.E.) [mV] (mV)
Answer format: numeric, mV implied, no suffix.

Use the examples below as a reference point.
>>> value_observed("CCCCCCCCCCCCCOC(=O)CCSCC(CC(=O)NC1CCN(C)CC1)C(=O)OCC(CCCCCC)CCCCCCCC (centres unmarked)")
3.83
>>> value_observed("CCCCCCCCCCCCCCCCOC(=O)CCSCCC(NC(=O)C(CCCCCC)CCCCCCCC)C(=O)NCCN1CCN(C)CC1 (centres unmarked)")
-1.54
>>> value_observed("CCCCCCCCCCCCC(CCCCCCCCCC)COC(=O)CCSCCC(NC(=O)C(CCCCCC)CCCCCCCC)C(=O)NC1CCN(C)CC1 (centres unmarked)")
-8.34

Ask: Given the entry CCCCCCCCC(CCCCCC)C(=O)NC(CCSCCC(=O)OCCCCCCCC(C)C)C(=O)NCCCN1CCCC1 (centres unmarked) , report its measured Z Potential (± D.E.) [mV].
Result: 2.43

Ask: Given the entry CCCCCCCCCCCCCCCCCCOC(=O)CCSCCC(NC(=O)CCCCCCCCCCCCCCCCC)C(=O)NCCCN1CCOCC1 (centres unmarked) , report its measured Z Potential (± D.E.) [mV].
Result: -17.08

Ask: Given the entry CCCCCCCCCCCCOC(=O)CCSCCC(NC(=O)C(CCCCCC)CCCCCCCC)C(=O)NCCCN(C)C (centres unmarked) , report its measured Z Potential (± D.E.) [mV].
Result: 0.00

Ask: Given the entry CCCCCCCC#CCOC(=O)CCSCCC(NC(=O)C(CCCCCC)CCCCCCCC)C(=O)NCCN1CCOCC1 (centres unmarked) , report its measured Z Potential (± D.E.) [mV].
Result: -15.07

Ask: Given the entry CCCCCCCCCCCCCCCCCC(=O)NC(CCSCCC(=O)OCCCCCCCCCCCC)C(=O)NC1CCN(C)CC1 (centres unmarked) , report its measured Z Potential (± D.E.) [mV].
Result: 1.34

---

- EXPERIMENT NOTES: Size distribution, polydispersity and Z-potential of LNPs by dynamic light scattering (Malvern Zetasizer)
- Assay type: physicochemical
- CONDITION CONTEXT: LNPs, standard formulation 50:10:38.5:1.5; DLS
- Procedure: The LNP solution was then adjusted to a final concentration of mRNA of 100 µg/ml. Size distribution, polydispersity and Z-potential were measured by dynamic light scattering (DLS) using Malvern Zetasizer Advance Lab Blue Label. RNA encapsulation was assessed by Quant-IT® Ribogreen following the manufacturer's instructions.
READOUT NAME: Particle size/ Ø (nm)
Answer format: numeric, nm implied, no suffix.

>>> value_observed("CCCCCCCCC(CCCCCC)COC(=O)C(CCSCCC(=O)OCC(CC)CCCC)C(=O)NCCCN1CCOCC1 (stereo not shown)")
179.2

Ask: Given the entry CCCC#CCCOC(=O)CCSCCC(NC(=O)C(CCCCCC)CCCCCCCC)C(=O)NC1CCN(C)CC1 (stereo not shown) , report its measured Particle size/ Ø (nm).
Result: 126.9

Ask: Given the entry CCCCCCCCC(CCCCCC)C(=O)NC(CCSCCC(=O)OCCCCCC)C(=O)NCCCN(CCO)CCO (stereo not shown) , report its measured Particle size/ Ø (nm).
Result: 179.9

Ask: Given the entry CCCCCCCCC(CCCCCCCC)OC(=O)C(CSCCC(=O)OCC(CC)CCCC)CC(=O)NCCCn1ccnc1 (stereo not shown) , report its measured Particle size/ Ø (nm).
Result: 193.3

---

- EXPERIMENT NOTES: RNA encapsulation efficiency of LNPs by Quant-IT Ribogreen
- Assay type: physicochemical
- CONDITION CONTEXT: LNPs with luciferase mRNA; ionizable lipid:non-cationic lipid:sterol:PEG-modified lipid 50:10:38.5:1.5; percentage of RNA entrapped in the LNP
Form field: Encaps. efficiency (%) (one value per entry).
Answer format: numeric, % implied, no suffix.

Use the examples below as a reference point.
>>> value_observed("CCCCCCCCCCCCCOC(=O)CCSCC(CC(=O)NC1CCN(C)CC1)C(=O)OCC(CCCCCC)CCCCCCCC (stereo not shown)")
97.01
>>> value_observed("CCCCCCCCC(CCCCCC)C(=O)NC(CCSCCC(=O)OCCCCCCCC(C)C)C(=O)NCCN1CCN(C)CC1 (stereo not shown)")
87.95
>>> value_observed("CCCCCCCC/C=C\\CCCCCCCCOC(=O)CCSCCC(NC(=O)C(CCCCCCCC)CCCCCCCCCC)C(=O)NCC1CCN(C)CC1 (stereo not shown)")
95.57
>>> value_observed("CCCCCCCCC(CCCCCC)C(=O)NC(CCSCCC(=O)OCCCCCC(C)C)C(=O)NC1CCN(C)CC1 (stereo not shown)")
72.79
>>> value_observed("CCCCCCCC#CCOC(=O)CCSCCC(C(=O)NC1CCN(C)CC1)C(=O)OC(CCCCCCCC)CCCCCCCC (stereo not shown)")
87.80
>>> value_observed("CCCCCCCCC(CCCCCC)C(=O)NC(CCSCCC(=O)OCCCCCCCC(C)C)C(=O)NC1CCN(C)CC1 (stereo not shown)")
67.87

Ask: Given the entry CCCCCCCCCCC(CCCCCCCC)C(=O)NC(CCSCCC(=O)OCCCCCCCC(C)C)C(=O)NCC1CCN(C)CC1 (stereo not shown) , report its measured Encaps. efficiency (%).
Result: 98.62

---

- EXPERIMENT NOTES: RNA encapsulation efficiency of LNPs by Quant-IT Ribogreen
- Format: physicochemical
- CONDITION CONTEXT: LNPs with luciferase mRNA; ionizable lipid:non-cationic lipid:sterol:PEG-modified lipid 50:10:38.5:1.5; percentage of RNA entrapped in the LNP
READOUT NAME: Encaps. efficiency (%)
Answer format: numeric, % implied, no suffix.

>>> value_observed("CCCCCCCC#CCOC(=O)CCSCCC(NC(=O)CCCCCCCCCCCCCCCCC)C(=O)NCCCN1CCOCC1 (stereo not drawn)")
83.80
>>> value_observed("CCCCCCCCCCCCCOC(=O)CCSCCC(NC(=O)C(CCCCCCCC)CCCCCCCCCC)C(=O)NC1CCN(C)CC1 (stereo not drawn)")
54.53

Here's the next entry for you.
Ask: Given the entry CCCCCCCCCCCCCCCCOC(=O)CCSCCC(NC(=O)C(CCCCCC)CCCCCCCC)C(=O)NCCCN1CCOCC1 (stereo not drawn) , report its measured Encaps. efficiency (%).
Result: 56.36
